assayed-system: UniProt P04150
test-protocol: Transrepression Assay (GITAR), TNFα-β-lactamase reporter gene in U937 cells
Format: cell-based
Design: U937 cells contain an endogenous glucocorticoid receptor (GR); endogenous in cells; host or cells: U937 cells stably transfected with the TNF-α promoter/β-lactamase reporter only
experimental-conditions: Table 1; U937 cells; IP = inflection point; read-out: Transrepression U937 Cells GITAR IP
Below, each of the compounds is paired with its reported pEC50 value.
Keep in mind that pEC50 stands for -log10 of concentration in molar terms.

Please review the entries below; each comes with its answer.
>>> reported_result("CCS(=O)(=O)c1ccccc1CC[C@]1(O)CCC2=Cc3c(cnn3-c3ccc(F)cc3)C[C@@]21C")
6.71
>>> reported_result("C[C@]12Cc3cnn(-c4ccc(F)cc4)c3C=C1CC[C@@]2(O)CCc1cccc(F)c1[C@@H](N)C(F)(F)F")
6.61

Lookup result for `C[C@]12Cc3cnn(-c4ccc(F)cc4)c3C=C1CC[C@@]2(O)CCc1ccccc1C(=O)NCC1CC1` ; measured pEC50: 7.09

So, `C[C@]12Cc3cnn(-c4ccccc4)c3C=C1CC[C@@]2(O)CCc1ccccc1C(=O)NC1CC1` ? Its pEC50 was 6.91

---

assayed-system: glucocorticoid receptor (GR) (Homo sapiens, UniProt P04150)
Construct: endogenous in cells; host or cells: HeLa (ATCC) cell lysate supernatant
Sequence (P04150 whole entry): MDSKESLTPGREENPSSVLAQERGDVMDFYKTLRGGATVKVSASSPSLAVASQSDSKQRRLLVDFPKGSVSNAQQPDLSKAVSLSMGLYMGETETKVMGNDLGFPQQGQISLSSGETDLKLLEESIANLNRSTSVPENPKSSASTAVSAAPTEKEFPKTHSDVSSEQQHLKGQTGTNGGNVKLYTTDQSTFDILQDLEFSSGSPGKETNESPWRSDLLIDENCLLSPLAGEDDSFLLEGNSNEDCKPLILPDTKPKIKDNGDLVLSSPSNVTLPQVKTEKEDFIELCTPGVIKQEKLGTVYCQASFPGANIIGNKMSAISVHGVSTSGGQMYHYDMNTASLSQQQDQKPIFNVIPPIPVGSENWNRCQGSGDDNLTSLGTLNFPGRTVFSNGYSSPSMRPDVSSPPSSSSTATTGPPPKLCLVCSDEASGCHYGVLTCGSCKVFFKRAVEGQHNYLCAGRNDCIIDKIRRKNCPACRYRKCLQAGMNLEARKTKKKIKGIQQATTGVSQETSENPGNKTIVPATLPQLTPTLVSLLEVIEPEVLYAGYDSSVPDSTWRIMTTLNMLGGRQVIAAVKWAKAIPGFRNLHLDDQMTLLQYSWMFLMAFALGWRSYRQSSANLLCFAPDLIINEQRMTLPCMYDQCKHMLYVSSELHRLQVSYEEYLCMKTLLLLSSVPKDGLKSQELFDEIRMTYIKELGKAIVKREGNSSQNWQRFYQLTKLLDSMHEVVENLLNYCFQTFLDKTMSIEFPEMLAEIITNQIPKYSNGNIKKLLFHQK
test-protocol: Ligand binding assay (GR BIND), 3H-dexamethasone displacement, HeLa cell lysate
experimental-conditions: Table 1; HeLa cell lysate, 3H-DEX
Consider the following compounds and their measured pKi readings.
pKi is defined as minus the log10 of a concentration measured in mol/L.

For orientation, consider the following solved cases.
>>> reported_result("C[C@]12Cc3cnn(-c4ccc(F)cc4)c3C=C1CC[C@@]2(O)CCc1ccccc1S(C)(=O)=O")
8.95
>>> reported_result("C[C@]12Cc3cnn(-c4ccc(F)cc4)c3C=C1CC[C@@]2(O)CCc1cccc(F)c1CNS(=O)(=O)C(Cl)Cl")
9.51
>>> reported_result("CC(C)CNC(=O)c1ccccc1CC[C@]1(O)CCC2=Cc3c(cnn3-c3ccc(F)cc3)C[C@@]21C")
8.94
>>> reported_result("C[C@]12Cc3cnn(-c4ccc(F)cc4)c3C=C1CC[C@@]2(O)CCc1cccc(F)c1CNS(=O)(=O)CC(F)(F)F")
9.29
>>> reported_result("CC(C)(C)NC(=O)c1ccccc1CC[C@]1(O)CCC2=Cc3c(cnn3-c3ccc(F)cc3)C[C@@]21C")
8.02

Entry `CN(C)S(=O)(=O)c1ccccc1CC[C@]1(O)CCC2=Cc3c(cnn3-c3ccc(F)cc3)C[C@@]21C` ; pKi = 9.08

pKi for `C=C(C)CNC(=O)c1c(F)cccc1CC[C@]1(O)CCC2=Cc3c(cnn3-c3ccc(F)cc3)C[C@@]21C` is 9.22

For reference, reported pKi for `C[C@]12Cc3cnn(-c4ccc(F)cc4)c3C=C1CC[C@@]2(O)CCc1ccccc1C(=O)N1CCC1` stands at 8.21

The value of pKi measured for the compound `C[C@]12Cc3cnn(-c4ccc(F)c(F)c4)c3C=C1CC[C@@]2(O)CCc1cccc(F)c1C(N)=O` turned out to be 8.67

In plain terms, `C[C@]12Cc3cnn(-c4ccccc4)c3C=C1CC[C@@]2(O)CCc1ccccc1C(N)=O` has a documented pKi of 8.29
